- TGT: DCN1 (DCUND1) protein PONY domain (Homo sapiens (Human))
- Sequence (Q96GG9 60-248): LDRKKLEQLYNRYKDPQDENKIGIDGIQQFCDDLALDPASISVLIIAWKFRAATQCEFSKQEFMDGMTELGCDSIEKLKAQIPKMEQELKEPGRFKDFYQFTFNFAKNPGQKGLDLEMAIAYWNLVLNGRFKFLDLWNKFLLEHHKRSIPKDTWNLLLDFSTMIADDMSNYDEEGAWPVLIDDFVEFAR
- PROCEDURE_SUMMARY: TR-FRET assay, DCN1 binding with FAM-labeled probe
- RUN_PARAMETERS: 24 hr after treatment with compound; read-out: TR FRET IC50 24 hr
pIC50: −log10 of the molar value.
PROPERTY_NAME: pIC50

Before answering, review these 10 worked examples.
C[C@@H](NC#N)c1nn(-c2ccccc2)c2c1[C@H](c1ccc(F)cc1)[C@H](NC(=O)c1cccc(C(F)(F)F)c1)C(=O)N2CCOP(=O)(O)O	≥ 6.70
CCN1C(=O)[C@@H](NC(=O)c2cc(C)n(C(C)(C)C)n2)[C@@H](C2CC2)c2c(C(=O)N3[C@H](C#N)C[C@H]4C[C@H]43)nn(C3CCOCC3)c21	≥ 6.70
CCN1C(=O)[C@@H](NC(=O)c2cccc(C(F)(F)F)c2)[C@@H](C2CC2)c2c(C(=O)N3CCC[C@H]3C#N)nn(-c3ccccc3)c21	≥ 6.70
C=C(COC)C(=O)NCc1nn(-c2ccccc2)c2c1[C@@H](c1ccc(F)cc1)[C@H](NC(=O)c1cccc(C(F)(F)F)c1)C(=O)N2CC	6.00 to 6.70
CCN1C(=O)[C@@H](NC(=O)c2cccc(C(F)(F)F)c2)[C@@H](C2CC2)c2c(C(=O)N3CCNC[C@H]3C#N)nn(-c3ccccc3)c21	≥ 6.70
CCN1C(=O)[C@@H](NC(=O)c2cccc(C(F)(F)F)c2)[C@@H](C2CCCC2)c2c(C(=O)N(C)[C@H](C)C#N)nn(C3CCOCC3)c21	≥ 6.70
CCN1C(=O)[C@@H](NC(=O)c2cccc(F)c2)[C@@H](C2CC2)c2c(C(=O)N3[C@H](C#N)C[C@H]4C[C@H]43)nn(C3CCOCC3)c21	≥ 6.70
C=CS(=O)(=O)N[C@H](C)c1nn(-c2ccccc2)c2c1[C@H](c1ccc(F)cc1)[C@H](NC(=O)c1cccc(C(F)(F)F)c1)C(=O)N2CC (mixture of isomers)	≥ 6.70
CCN1C(=O)[C@@H](NC(=O)c2cccc(C(F)(F)F)c2)[C@@H](c2ccc(F)cc2)c2c(CN3CC=CS3(=O)=O)nn(-c3ccccc3)c21 (racemic)	6.00 to 6.70
C=C(CN(C)C1COC1)C(=O)NCc1nn(-c2ccccc2)c2c1[C@H](c1ccc(F)cc1)[C@H](NC(=O)c1cccc(C(F)(F)F)c1)C(=O)N2CC (racemic)	≥ 6.70

Go through the list and state pIC50 for each entry.
1. CCN1C(=O)[C@@H](NC(=O)c2ccc3c(c2)COC3)[C@@H](C2CC2)c2c(C(=O)N3[C@H](C#N)C[C@H]4C[C@H]43)nn(C3CCOCC3)c21
2. CCN1C(=O)[C@@H](NC(=O)c2cccc(C(F)(F)F)c2)[C@@H](c2ccc(F)cc2)c2c(CNC(=O)C3(C#N)COC3)nn(-c3ccccc3)c21 (racemic)
3. CCN1C(=O)[C@@H](NC(=O)c2cccc3ccoc23)[C@@H](C2CC2)c2c(C(=O)N3[C@H](C#N)C[C@H]4C[C@H]43)nn(C3CCOCC3)c21

1: ≥ 6.70; 2: 6.00 to 6.70; 3: ≥ 6.70
